# Tested on: UACC-62 melanoma
# Procedure text: NCI tumour cell line growth inhibition, 48 h; in the data active = GI50 below about 0.43 µM; inactive = the rest
Bench note: report the call from yes for active, no for inactive

Below are worked cases with known answers.
Molecule	Group label
O=C1NC(=O)C(N2C(=O)c3ccccc3C2=O)CC1O (stereo not given)	no
COc1ccc2cc1Oc1ccc(cc1)C[C@H]1c3c(cc4c(c3Oc3cc5c(cc3OC)CCN(C)[C@@H]5C2)OCO4)CCN1C	no
CN1C(=O)N(C)C2C1NN=c1s/c(=C\c3ccc(C(F)(F)F)cc3)c(=O)n12 (stereo not given)	no
O=c1[nH]c(=O)n(C2CC(O)C(COP(=O)(OCc3ccc([N+](=O)[O-])o3)N(CCCCCl)CC(O)CO)O2)cc1F (stereo not given)	yes

Query: In this assay, the call recorded for "FC(F)(F)c1ccc(-c2cnc(-c3ncon3)nc2NC2CCCCCC2)cc1" was what?
Response: no

Query: In this assay, the call recorded for C1CCC([PH+](C2CCCCC2)C2CCCCC2[PH+](C2CCCCC2)C2CCCCC2)CC1.[Au].[CH-]1CCCCC1CC1CCCC[N-]1 (stereo not given) was what?
Response: yes

Query: In this assay, the call recorded for "CCCN(CCS(C)(=O)=O)Cc1ccc(-c2ccc3ncnc(Nc4ccc(OCc5cccc(F)c5)c(Cl)c4)c3c2)o1" was what?
Response: no

Query: In this assay, the call recorded for "CCCCCCCCCCCCCCCCCC[n+]1ccc2c(C)c3c(c(C)c2c1)c1cc(O)ccc1n3CC" was what?
Response: no

Query: In this assay, the call recorded for "CN1CCN(C(=O)c2cc(-c3ccc4ncnc(N5CCc6cc(F)c(Cl)cc65)c4c3)cnc2N)CC1" was what?
Response: yes

Query: In this assay, the call recorded for "N#Cc1c(N2CCOCC2)nc(=S)[nH]c1-c1ccco1" was what?
Response: no

Query: In this assay, the call recorded for "CCCCCCCCCCCCCCCCCC1=NCCN1CCOC1=C(Cl)C(=O)c2ccccc2C1=O" was what?
Response: no

Query: In this assay, the call recorded for "C/C(=C\c1ccc2ccccc2c1)[N+](=O)[O-]" was what?
Response: no

Query: In this assay, the call recorded for "O=C(O)CN1CCN(CC(=O)O)CC(=O)[O][Hg][O]C(=O)C1" was what?
Response: no

Query: In this assay, the call recorded for OCc1ccc(N2CCCC2c2ccccc2)cc1Cl (stereo not given) was what?
Response: no

Query: In this assay, the call recorded for "O=C1c2c(c3c4ccccc4[nH]c3c3ccc4ccccc4c23)C(=O)N1CCN1CCNCC1" was what?
Response: no

====

# Test system: UO-31 renal
# Procedure text: NCI tumour cell line growth inhibition, 48 h; in the data active = GI50 below about 0.43 µM; inactive = the rest
Bench note: report the call from y for active, n for inactive

Molecule	Group label
FC(F)(F)c1ccc(-c2cnc(-c3ncon3)nc2NC2CCCCCC2)cc1	n
CC(C)NCCCn1c(Sc2cc3c(cc2I)OCO3)nc2c(N)ncnc21	y
COc1ccc2c(c1)N(CCO)C1=C(C(=O)OC1)C2c1cccc(F)c1 (centres undefined)	y

Query: In this assay, the call recorded for "O=C1c2cccnc2C(=O)c2c1c(C(=O)NCCCN1CCCCC1)c1ccccn21" was what?
Response: n

Query: In this assay, the call recorded for "C[C@@H]1CN(Cc2ccc(F)cc2)[C@@H](C)CN1C(=O)c1cc2c(C(=O)C(=O)N(C)C)cn(C)c2cc1Cl" was what?
Response: n

Query: In this assay, the call recorded for "COc1cc2nc(N3CCCC3)nc(NCCc3ccccc3)c2cc1OC" was what?
Response: n

Query: In this assay, the call recorded for O=C1NC(=O)C(N2C(=O)c3ccccc3C2=O)CC1O (centres undefined) was what?
Response: n

Query: In this assay, the call recorded for "CC1=C2[C@@H](CC1)[C@]1(C)O[C@@](c3ccccc3)(C[C@H]1OC(=O)CO)[C@H]2OC(=O)/C=C/c1ccccc1" was what?
Response: n
